// values below are reported log10 of IC50
Target: Acetylcholinesterase (Electrophorus electricus)
Sequence (O42275 whole entry): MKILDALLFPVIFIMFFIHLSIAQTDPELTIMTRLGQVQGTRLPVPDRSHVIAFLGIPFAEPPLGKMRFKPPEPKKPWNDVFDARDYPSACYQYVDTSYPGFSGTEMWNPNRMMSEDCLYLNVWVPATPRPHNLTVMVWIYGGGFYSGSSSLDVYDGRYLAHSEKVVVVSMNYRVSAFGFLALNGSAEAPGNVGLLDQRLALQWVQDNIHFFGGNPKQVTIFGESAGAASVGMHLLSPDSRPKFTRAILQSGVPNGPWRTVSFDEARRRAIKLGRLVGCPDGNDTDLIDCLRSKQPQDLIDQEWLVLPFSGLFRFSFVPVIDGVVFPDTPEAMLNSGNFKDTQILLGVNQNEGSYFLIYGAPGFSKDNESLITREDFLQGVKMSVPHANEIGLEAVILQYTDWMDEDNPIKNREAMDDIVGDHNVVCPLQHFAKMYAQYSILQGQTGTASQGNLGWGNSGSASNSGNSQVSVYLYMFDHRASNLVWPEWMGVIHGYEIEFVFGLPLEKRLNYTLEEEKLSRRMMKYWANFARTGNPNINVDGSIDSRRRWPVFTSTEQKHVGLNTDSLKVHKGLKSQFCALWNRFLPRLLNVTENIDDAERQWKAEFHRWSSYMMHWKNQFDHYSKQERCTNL
Quantity Kind: log10 of IC50 (log10 of the value in nM)

- Molecule Smiles: "O=c1c2ccccc2[se]n1CCCCCCNc1c2c(nc3ccccc13)CCCC2"
  Measured Number: 0.80
- Molecule Smiles: "O=c1c2ccccc2[se]n1CCCCNc1c2c(nc3ccccc13)CCCC2"
  Measured Number: 2.18
- Molecule Smiles: "O=c1c2ccccc2[se]n1CCCCCNc1c2c(nc3ccccc13)CCCC2"
  Measured Number: 1.85
- Molecule Smiles: "O=c1c2ccccc2[se]n1CCNc1c2c(nc3ccccc13)CCCC2"
  Measured Number: 2.82
- Molecule Smiles: "O=c1c2ccccc2[se]n1CCCNc1c2c(nc3ccccc13)CCCC2"
  Measured Number: 2.63
- Molecule Smiles: "COc1cc2[se]n(CCCCCCNc3c4c(nc5ccccc35)CCCC4)c(=O)c2cc1OC"
  Measured Number: 0.41
- Molecule Smiles: "O=c1c2ccccc2[se]n1CCCCCCCCCNc1c2c(nc3ccccc13)CCCC2"
  Measured Number: 1.51
- Molecule Smiles: "O=c1c2ccccc2[se]n1CCCCCCCNc1c2c(nc3ccccc13)CCCC2"
  Measured Number: 1.42
- Molecule Smiles: "O=c1c2ccccc2[se]n1CCCCCCCCNc1c2c(nc3ccccc13)CCCC2"
  Measured Number: 1.38
- Molecule Smiles: "c1ccc2c(NCCCCCCCNc3c4c(nc5ccccc35)CCCC4)c3c(nc2c1)CCCC3"
  Measured Number: -0.77

* * *

Target: Cholinesterase (Equus caballus)
Sequence (P81908 whole entry): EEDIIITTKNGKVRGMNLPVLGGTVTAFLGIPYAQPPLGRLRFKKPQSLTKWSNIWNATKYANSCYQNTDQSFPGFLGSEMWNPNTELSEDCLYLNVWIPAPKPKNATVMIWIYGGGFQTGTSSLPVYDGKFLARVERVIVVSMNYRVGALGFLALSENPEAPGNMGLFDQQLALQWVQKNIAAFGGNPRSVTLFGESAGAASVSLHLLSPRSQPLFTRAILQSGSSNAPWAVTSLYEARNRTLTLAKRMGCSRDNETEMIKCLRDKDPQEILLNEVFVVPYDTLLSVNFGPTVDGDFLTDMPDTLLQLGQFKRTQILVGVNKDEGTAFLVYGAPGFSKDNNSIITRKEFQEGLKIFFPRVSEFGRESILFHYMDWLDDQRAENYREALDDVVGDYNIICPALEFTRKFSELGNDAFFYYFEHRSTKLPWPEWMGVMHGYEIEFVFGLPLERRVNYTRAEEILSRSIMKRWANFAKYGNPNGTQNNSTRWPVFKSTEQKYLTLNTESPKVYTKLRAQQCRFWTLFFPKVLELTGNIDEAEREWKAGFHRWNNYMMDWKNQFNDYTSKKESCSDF
pIC50: −log10 of the molar value.

- Molecule Smiles: "O=c1c2ccccc2[se]n1CCCNc1c2c(nc3ccccc13)CCCC2"
  pIC50: 7.54
- Molecule Smiles: "O=c1c2ccccc2[se]n1CCCCCCCNc1c2c(nc3ccccc13)CCCC2"
  pIC50: 7.85
- Molecule Smiles: "O=c1c2ccccc2[se]n1CCCCCCCCCNc1c2c(nc3ccccc13)CCCC2"
  pIC50: 7.59
- Molecule Smiles: "O=c1c2ccccc2[se]n1CCCCCCNc1c2c(nc3ccccc13)CCCC2"
  pIC50: 8.36
- Molecule Smiles: "COc1cc2[se]n(CCCCCCNc3c4c(nc5ccccc35)CCCC4)c(=O)c2cc1OC"
  pIC50: 8.55
- Molecule Smiles: "O=c1c2ccccc2[se]n1CCNc1c2c(nc3ccccc13)CCCC2"
  pIC50: 7.41
- Molecule Smiles: "O=c1c2ccccc2[se]n1CCCCCCCCNc1c2c(nc3ccccc13)CCCC2"
  pIC50: 7.78
- Molecule Smiles: "O=c1c2ccccc2[se]n1CCCCCNc1c2c(nc3ccccc13)CCCC2"
  pIC50: 8.34
- Molecule Smiles: "O=c1c2ccccc2[se]n1CCCCNc1c2c(nc3ccccc13)CCCC2"
  pIC50: 8.31
- Molecule Smiles: "c1ccc2c(NCCCCCCCNc3c4c(nc5ccccc35)CCCC4)c3c(nc2c1)CCCC3"
  pIC50: 8.39
